Test: In vivo pharmacokinetic profiles in male ICR mice
Settings: male, ICR, mouse, plasma, po, 10 mg/kg
measurement-type: Cmax (ng/mL)
I only need the number, in ng/mL, no unit after it.

compound | Cmax, ng/mL
O=c1nc(N2CCN(CC3CCCCC3)CC2)sc2c([N+](=O)[O-])cc(C(F)(F)F)cc12 [Macozinone, reference compound] | 251

Ask: Tell me its Cmax given N#Cc1cc(C(F)(F)F)cc2c(=O)nc(N3CCN(CC4CCCCC4)CC3)sc12 as the entry.
Reply: 110

----------
Below is a list of entries, each paired with its recorded bioavailability value.
Experiment: In vivo pharmacokinetic profiles in male ICR mice
Settings: male, ICR, mouse, plasma, oral, 10 mg/kg

compound | experimental-value
O=c1nc(N2CCN(CC3CCCCC3)CC2)sc2c([N+](=O)[O-])cc(C(F)(F)F)cc12 [Macozinone, reference compound] | 16.7%

Now let's try a different one.
Ask: Tell me its bioavailability given N#Cc1cc(C(F)(F)F)cc2c(=O)nc(N3CCN(CC4CCCCC4)CC3)sc12 [Compound 1d] as the entry.
Reply: 7.8%

----------
Assay: Microsomal stability, mouse liver microsomes
Format: in vitro ADME
Details: Mouse (% remaining at 30 min) With NADPH, with NADPH
Below is a list of entries, each paired with its recorded remaining at 0.5 h, 1 µM value.
Write the figure, then the unit, nothing else.

compound | remaining at 0.5 h, 1 µM
N#Cc1cc(C(F)(F)F)cc2c(=O)nc(N3CCN(CC4CCCCC4)CC3)sc12 [Compound 1d] | 38.6%

Ask: Tell me its remaining at 0.5 h, 1 µM given O=c1nc(N2CCN(CC3CCCCC3)CC2)sc2c([N+](=O)[O-])cc(C(F)(F)F)cc12 [Macozinone, reference compound] as the entry.
Reply: 50.7%

----------
Below is a list of entries, each paired with its recorded half-life value.
Experiment: In vivo pharmacokinetic profiles in male ICR mice
Conditions: male, ICR, mouse, plasma, po, 10 mg/kg

molecule | half-life
O=c1nc(N2CCN(CC3CCCCC3)CC2)sc2c([N+](=O)[O-])cc(C(F)(F)F)cc12 [Macozinone, reference compound] | 101 min

Now let's try a different one.
Ask: Tell me its half-life given N#Cc1cc(C(F)(F)F)cc2c(=O)nc(N3CCN(CC4CCCCC4)CC3)sc12 as the entry.
Reply: 104 min

----------
Assay: Microsomal stability, mouse liver microsomes
Type: in vitro ADME
Settings: Mouse (% remaining at 30 min) Without NADPH, without NADPH
Below is a list of entries, each paired with its recorded remaining at 0.5 h, 1 µM value.
Write the figure, then the unit, nothing else.

compound | remaining at 0.5 h, 1 µM
O=c1nc(N2CCN(CC3CCCCC3)CC2)sc2c([N+](=O)[O-])cc(C(F)(F)F)cc12 [Macozinone, reference compound] | 102%

Ask: Tell me its remaining at 0.5 h, 1 µM given N#Cc1cc(C(F)(F)F)cc2c(=O)nc(N3CCN(CC4CCCCC4)CC3)sc12 as the entry.
Reply: 96.4%

----------
Experiment: In vivo pharmacokinetic profiles in male ICR mice
Details: male, ICR, mouse, plasma, po, 10 mg/kg
measurement-type: Tmax (min)
I only need the number, in min, no unit after it.

compound | experimental-value
O=c1nc(N2CCN(CC3CCCCC3)CC2)sc2c([N+](=O)[O-])cc(C(F)(F)F)cc12 [Macozinone, reference compound] | 15

Now let's try a different one.
Ask: Tell me its Tmax given N#Cc1cc(C(F)(F)F)cc2c(=O)nc(N3CCN(CC4CCCCC4)CC3)sc12 as the entry.
Reply: 15
